# maps each entry to its CC50 at 6 days
Assay: Cytotoxicity in HepG2 cells using CellTiter-Blue, same incubation period as HepG2.2.15 assay
Format: cell-based
Conditions: human, HepG2 cells, 6 days, CellTiter-Blue; read-out: HepG2 6 days CC50
Your answer should be a plain number; it is taken to be in µM.

Completed entries (count: 5):
CCOC(=O)C1=C(CN2CCOCC2)NC(c2ccccn2)=NC1(C)c1ccc(F)cc1F (stereo not drawn)	57.7
COC(=O)C1=C(C)NC(c2ncc(F)cc2F)=NC1(C)c1ccc(F)cc1 (stereo not drawn)	63.8
CCOC(=O)C1=C(CN2CCCCC2)NC(c2ccccn2)=NC1(C)c1ccc(F)cc1 (stereo not drawn)	62.4
COC(=O)C1=C(CN2CCOCC2)NC(c2ccccn2)=NC1(C)c1cc(F)cc(Cl)c1 (stereo not drawn)	47.4
CCOC(=O)C1=C(C)NC(c2nccs2)=NC1(C)c1ccc(F)c(Cl)c1 (stereo not drawn)	17.5

Ask | Return the recorded CC50 at 6 days value; entry: CC1(C)CCC2(N=C(c3ccccn3)NC(CN3CCOCC3)=C2C#N)c2ccccc21 (stereo not drawn)
Reply | 87.4

Ask | Return the recorded CC50 at 6 days value; entry: CCOC(=O)C1=C(C)NC(c2ccccn2)=NC1(C)c1ccc(F)c(Cl)c1 (stereo not drawn)
Reply | 39.9

Hey, just so you know, these numbers are from patent US9233933B2.
